assayedTarget: HCV NS3/4A protease genotype 1b (Hepatitis C virus genotype 1b, UniProt P26663)
assayMethodText: HCV NS3/4A protease time-resolved fluorescence (TRF) assay, Ki against genotype 1b
Assay type: biochemical
studyConditions: IC50 [gt-1b] (nM), NS3/4A genotype 1b, enzyme 0.2 nM; K+ salt
The threshold is 0.008 nM. Values of IC50 beneath it are tagged 1.0; values meeting or exceeding it are tagged 0.0.

>  <molecule>
Cc1nc2ccccc2c2c1O[C@]1(CC2)C[C@H]2C(=O)N[C@]3(C(=O)NS(=O)(=O)C4(C)CC4)C[C@H]3/C=C\CCCCC[C@H](NC(=O)OC3CCCCC3)C(=O)N2C1 [Example 143]

>  <qualitativeLabel>
0.0

$$$$
>  <molecule>
Cc1nc2ccc(Cl)cc2c2c1O[C@]1(CC2)C[C@H]2C(=O)N[C@]3(C(=O)NS(=O)(=O)C4(C)CC4)C[C@H]3/C=C\CCCCC[C@H](NC(=O)OCC(C)C)C(=O)N2C1 [Example 189]

>  <qualitativeLabel>
1.0

$$$$
>  <molecule>
Cc1nc2ccc(Cl)cc2c2c1O[C@]1(CC2)C[C@H]2C(=O)N[C@]3(C(=O)NS(=O)(=O)C4(C)CC4)C[C@H]3/C=C\CCCCC[C@H](NC(=O)OCC(C)(C)C)C(=O)N2C1 [Example 40]

>  <qualitativeLabel>
1.0

$$$$
>  <molecule>
COc1ccc2nc(C)c3c(c2c1)C(F)(F)C[C@]1(C[C@H]2C(=O)N[C@]4(C(=O)NS(=O)(=O)C5(C)CC5)C[C@H]4/C=C\CCCCC[C@H](NC(=O)O[C@@H](C)C(C)C)C(=O)N2C1)O3 [Example 264]

>  <qualitativeLabel>
0.0

$$$$
>  <molecule>
Cc1nc2cc(F)c(F)cc2c2c1O[C@]1(CC2)C[C@H]2C(=O)N[C@]3(C(=O)NS(=O)(=O)C4(C)CC4)C[C@H]3/C=C\CCCCC[C@H](NC(=O)OC3CCCCC3)C(=O)N2C1 [Example 203]

>  <qualitativeLabel>
0.0

$$$$
>  <molecule>
COc1ccc2nc(C3CC3)c3c(c2c1)C(F)(F)C[C@]1(C[C@H]2C(=O)N[C@]4(C(=O)NS(=O)(=O)C5(C)CC5)C[C@H]4/C=C\CCCCC[C@H](NC(=O)OC(C)(C)C)C(=O)N2C1)O3 [Example 19]

>  <qualitativeLabel>
0.0

$$$$

Source of measurements: patent US8987195B2
